- method-description: folding enthalpy; higher = less favourable; fluorescence melt of hairpins on a sequencing array, two-state fit
- condition-info: sodium 0.088 M
experimental-endpoint: folding enthalpy (kcal/mol)
Hi! Could you send only the number? It should be in kcal/mol, unit omitted.

# example entries with known answers
>>> reading("GGGGAACGAAAGTTACCC (((.(((....))).)))")
-47.9
>>> reading("GTGCCACGAAAGTGTCAC (((.(((....))).)))")
-30
>>> reading("GTTCAGAAATGAAC (((((....)))))")
-21.2
>>> reading("GCACAAGGAAACTTGTAC (.(((((....))))).)")
-20.6
>>> reading("GCTGAGCGAAAGCCGAGC (((..((....))..)))")
-17.2

In one line, give reported folding enthalpy of the entry GATCTTCCGCAAGATC ((((((....)))))) .
-35.4

Report measured folding enthalpy; entry is GCCTTGCGAAAGCAAAGC ((.((((....)))).))
-14.9

Give reported folding enthalpy value for GGCAGCGAAAGCTCGGCC ((((((....)))..)))
-17.7

Give folding enthalpy for the following sequence: GACGACGGAAACGTTGTC (((.(((....))).)))
-43.1

In one line, give reported folding enthalpy of the entry GGCTCACCGAAAGGTGCC (((..(((....)))))) .
-10.9

Please report the measured folding enthalpy for GATCAAGCATTTGATC ((((((....))))))
-32.7

Identify folding enthalpy associated with the sequence GACCACGAAAGTGGGGTC ((((((....)))..)))
-13.2

Look up and report measured folding enthalpy for this entry: GTCACGGGAAACCGTGAC (((((((....)))))))
-35.5

Supply measured folding enthalpy of GTAGCGGGAAACCGCTGC (.(((((....))))).) in your reply.
-17.3

* * *

- method-description: folding enthalpy; higher = less favourable; fluorescence melt of hairpins on a sequencing array, two-state fit
- condition-info: sodium 0.088 M
Response key: criterion met means folding enthalpy >= -20 kcal/mol; criterion not met means folding enthalpy < -20 kcal/mol.

Here's what some known entries look like.
>>> category_label("GGCACAGGAAACTGTGTC (.(((((....))))).)")
"criterion not met"
>>> category_label("GATCAACTGGTTGATC ((((((....))))))")
"criterion not met"
>>> category_label("GTCTGACGAAAGTCGGAC (((.(((....))).)))")
"criterion not met"
>>> category_label("GTCGGGGGAAACTCCGAC (((((.(....).)))))")
"criterion not met"
>>> category_label("GGTTAGGCGAAAGCCACC (((..(((....))))))")
"criterion met"
>>> category_label("GATCTCAGGGGAGATC ((((((....))))))")
"criterion not met"
>>> category_label("GGAATTGGAAACGATTCC (((((.(....).)))))")
"criterion not met"
>>> category_label("GCAGTGCGAAAGCATGGC ((..(((....)))..))")
"criterion met"

Identify whether the reported folding enthalpy of the following sequence is -20 kcal/mol or greater: GCGTTTTAACGC ((((....))))
criterion not met

Does folding enthalpy meet or surpass -20 kcal/mol for GTGAGCGGAAACACTCAC (((((.(....).))))) ?
criterion not met

Is reported folding enthalpy greater than or equal to -20 kcal/mol here: GCACAATCGAAAGATTGC (((..(((....))))))
criterion met

hey, is folding enthalpy for this one >= -20 kcal/mol? GACGATGGAAACATCATC ((.((((....)))).))
criterion met

Entry TATGTGAAAACATA (((((....))))) : is its folding enthalpy no less than -20 kcal/mol?
criterion met

Reported folding enthalpy at or above -20 kcal/mol? GCTTCGCGAAAGCCCAGC (((..((....))..)))
criterion met

Record GCCAATCGAAAGATGGGC (((.(((....))).))) ; criterion: folding enthalpy no lower than -20 kcal/mol. Met?
criterion not met

Item GTGTGCGGAAACGTGCAC (((..((....))..))) with folding enthalpy of -20 kcal/mol or above?
criterion not met

# check: folding enthalpy of GCGCACGAAAGTGGTCGC ((((((....)))..))) is greater than or equal to -20 kcal/mol
criterion met

Assess whether reported folding enthalpy for GCGAGGCGAAAGCCGGGC ((..(((....)))..)) sits at -20 kcal/mol or higher.
criterion not met

Check this sequence for folding enthalpy at or above -20 kcal/mol: GCTTGCGGAAACACAAGC (((((.(....).)))))
criterion not met

Hi, just wondering whether GATCCTACCTAGGATC ((((((....)))))) shows folding enthalpy of -20 kcal/mol or higher.
criterion not met

Has GTGGGCGGAAACGCCTGC (..((((....))))..) a recorded folding enthalpy greater than or equal to -20 kcal/mol?
criterion met

* * *

- method-description: folding enthalpy; higher = less favourable; fluorescence melt of hairpins on a sequencing array, two-state fit
- condition-info: sodium 0.088 M
# label = criterion met if folding enthalpy >= -10 kcal/mol else criterion not met

>>> category_label("GGCTGGTCGAAAGACGCC (((..(((....))))))")
"criterion not met"
>>> category_label("GATCGAGTTCTCGATC ((((((....))))))")
"criterion not met"
>>> category_label("GCTTGGCGAAAGCCAGC (((.(((....))))))")
"criterion not met"
>>> category_label("GAACGTGGAAACACGTTC (((((((....)))))))")
"criterion not met"
>>> category_label("GTGTCGCGAAAGCGCCAC (((.(((....))).)))")
"criterion not met"

Say whether GCGTTCCGAAAGGATCGC (((.(((....))).))) shows folding enthalpy of -10 kcal/mol or more.
criterion not met

Is folding enthalpy at least -10 kcal/mol? Consider GTCGTCGAAAGACGAGAC ((((((....)))..)))
criterion not met

Check this sequence for folding enthalpy at or above -10 kcal/mol: GATCGCGAAAGCGTAATC ((((((....)))..)))
criterion met

Quick check, folding enthalpy >= -10 kcal/mol? GGCTGGGGAAACCTAGCC ((((.((....)).))))
criterion not met

Hello, I need to know if GACTAGCCGAAAGGCGTC (((..(((....)))))) has measured folding enthalpy not below -10 kcal/mol. Thanks!
criterion met

Hi team, for GTACACGAAAGTGGGTAC ((((((....)))..))) , is the recorded folding enthalpy at or above -10 kcal/mol?
criterion not met

* * *

- method-description: folding enthalpy; higher = less favourable; fluorescence melt of hairpins on a sequencing array, two-state fit
- condition-info: sodium 0.088 M
I'd appreciate it if you could label each record using folding enthalpy and these ranges: Low (below -30 kcal/mol), Medium (-30 kcal/mol to below -20 kcal/mol), High (-20 kcal/mol or more)

>>> category_label("GATCCCTAGGGGATC ((((((...))))))")
"Low"

Category of GTCTCACGAAAGTGGGAC (((.(((....))).))) , please.
Low

Assign a category based on measured folding enthalpy for GGTAACGAAAGTTTCACC ((((((....)))..))) and give only the class name.
High

State the band of GTTTACGAAAGTATAAC ((((((....))).)))
High

Hey, which category is GCGCTGGGAAACTGGCGC ((((..(....)..)))) in, do you know?
Low

Which folding enthalpy category applies to GTTGACCGAAAGGTTAAC (((.(((....))).))) here?
Low

Band for GGACCGCGAAAGCGATCC (((.(((....))).))) ?
Medium

Which band does GGTGTAGCGAAAGCTACC (((..(((....)))))) fall in?
High

Classify this sequence: GTTTTGGCGAAAGCCAAC (((..(((....))))))
High

Form field 'band' for GGCCACGGAAACGCGACC ((.(.((....)).).))
Medium

Hey, which category is CGTACGGAAACGTGCACG ((((((....)))..))) in, do you know?
High

Dear colleague, I would appreciate it if you could identify the bin for GATCGGTGTACCGATC ((((((....)))))) and reply at your convenience.
Low

Given GCCTCGCGAAAGCTAAGC ((.(.((....)).).)) , name the class its folding enthalpy places it in.
High

Class label required: GCGAGTTTTCGC ((((....))))
High

Any idea which band GACCTCCGAAAGGACGTC (((.(((....))).))) is in?
Medium

Which of the defined bands does the recorded folding enthalpy of GATCGGCGGCCGATC ((((((...)))))) sit within?
Low

Band of GGATGCCGAAAGGCTTCC (((.(((....))).))) ?
Medium

Category of GTCGTTCGAAAGAATGAC (((.(((....))).))) :
Low

Band for the recorded folding enthalpy of GCGCCAACGAAAGTTCGC (((..(((....)))))) ?
Medium

Which category does the recorded folding enthalpy put GACAGTGCGAAAGCAGTC (((..(((....)))))) in?
High

Which category does the recorded folding enthalpy put GGAGTGGGAAACCACTCC (((((((....))))))) in?
Low

Just checking, what class would you give GGGTCCGAAAGGACACCC ((((((....)))..))) here?
High

Category lookup for the sequence GCTACCGAAAGGTTCAGC ((((((....)))..)))
High
